molecular target: Rhesus PDE2A3 (Macaca mulatta, UniProt B3VTJ2); construct: made in house; host or cells: AD293 cells, transient transfection, pcDNA3.3-TOPO; lysate supernatant used as enzyme; experiment: PDE2 fluorescence polarization (IMAP FP) inhibition assay, rhesus enzyme; format: biochemical, rhesus macaque; details: Lab B; read-out: Rhesus PDE2 Ki (nM) Lab B
Sequence (B3VTJ2 1-941): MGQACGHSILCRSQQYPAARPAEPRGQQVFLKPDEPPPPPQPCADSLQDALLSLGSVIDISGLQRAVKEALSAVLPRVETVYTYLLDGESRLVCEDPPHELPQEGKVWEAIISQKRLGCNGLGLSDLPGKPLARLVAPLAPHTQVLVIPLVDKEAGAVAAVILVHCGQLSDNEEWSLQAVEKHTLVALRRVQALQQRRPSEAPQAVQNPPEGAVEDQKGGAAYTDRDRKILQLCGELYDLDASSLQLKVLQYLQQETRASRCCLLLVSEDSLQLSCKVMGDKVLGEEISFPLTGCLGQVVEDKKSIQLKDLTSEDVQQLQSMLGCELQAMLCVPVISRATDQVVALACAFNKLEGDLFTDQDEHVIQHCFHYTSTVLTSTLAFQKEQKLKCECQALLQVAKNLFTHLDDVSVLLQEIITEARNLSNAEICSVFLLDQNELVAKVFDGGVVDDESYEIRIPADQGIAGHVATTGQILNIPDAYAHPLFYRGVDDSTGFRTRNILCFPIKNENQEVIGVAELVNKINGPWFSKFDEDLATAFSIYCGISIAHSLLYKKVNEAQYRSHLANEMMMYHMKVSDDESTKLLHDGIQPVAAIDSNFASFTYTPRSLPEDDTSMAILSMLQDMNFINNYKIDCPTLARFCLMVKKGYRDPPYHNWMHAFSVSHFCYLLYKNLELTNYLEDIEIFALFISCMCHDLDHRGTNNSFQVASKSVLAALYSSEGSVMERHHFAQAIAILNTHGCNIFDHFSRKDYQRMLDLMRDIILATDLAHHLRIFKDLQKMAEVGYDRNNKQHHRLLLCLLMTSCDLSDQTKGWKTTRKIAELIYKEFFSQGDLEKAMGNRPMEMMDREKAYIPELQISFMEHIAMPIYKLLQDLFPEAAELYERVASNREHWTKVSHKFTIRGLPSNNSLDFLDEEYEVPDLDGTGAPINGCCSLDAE
Readout kind: Ki (nM)

> print(dat)
                                   molecule  reported
1  Cc1nc(-c2cc([C@@H](C)c3ccc(C(F)(F)F)cc3)n(C)n2)cc(=O)[nH]1 (single isomer, unassigned) [Example 26]      1140
2  Cc1ccc(C(C)n2ccc(-c3cc(=O)[nH]c(C)n3)n2)cc1 (stereo not shown)     48700
3  Cc1nc(-c2cnn(C(C)C3CCOCC3)c2)cc(=O)[nH]1 (stereo not shown)     40100
4  COc1cc(Cc2nc(-c3cnn(C(C)c4ccc(C(F)(F)F)cc4F)c3)cc(=O)[nH]2)ccc1F (single isomer, unassigned) [Example 142]       1.4
5  Cc1nc(-c2cc([C@H](C)c3ccc(C(F)(F)F)cc3)[nH]n2)cc(=O)[nH]1 (single isomer, unassigned) [Example 24]       154
6  Cc1nc(-c2c(C)nn(C(C)c3ccc(C(F)(F)F)cc3)c2C)cc(=O)[nH]1 (stereo not shown)       727
7  COc1ccc(Cc2nc(-c3cnn(C(C)c4ccc(C(F)(F)F)cc4)c3)cc(=O)[nH]2)cc1OC (single isomer, unassigned) [Example 61]       1.8

###

molecular target: human PDE2A1 (Homo sapiens, UniProt O00408); construct: GST; purchased BPS Bioscience (San Diego, Calif.) 60020; host or cells: insect cells; assay: PDE2 IMAP FP inhibition assay, human enzyme (PDE selectivity panel format); assay type: biochemical; settings: Lab A; read-out: Human PDE2 Ki (nM) Lab A
Sequence (O00408 1-920 isoform O00408-2): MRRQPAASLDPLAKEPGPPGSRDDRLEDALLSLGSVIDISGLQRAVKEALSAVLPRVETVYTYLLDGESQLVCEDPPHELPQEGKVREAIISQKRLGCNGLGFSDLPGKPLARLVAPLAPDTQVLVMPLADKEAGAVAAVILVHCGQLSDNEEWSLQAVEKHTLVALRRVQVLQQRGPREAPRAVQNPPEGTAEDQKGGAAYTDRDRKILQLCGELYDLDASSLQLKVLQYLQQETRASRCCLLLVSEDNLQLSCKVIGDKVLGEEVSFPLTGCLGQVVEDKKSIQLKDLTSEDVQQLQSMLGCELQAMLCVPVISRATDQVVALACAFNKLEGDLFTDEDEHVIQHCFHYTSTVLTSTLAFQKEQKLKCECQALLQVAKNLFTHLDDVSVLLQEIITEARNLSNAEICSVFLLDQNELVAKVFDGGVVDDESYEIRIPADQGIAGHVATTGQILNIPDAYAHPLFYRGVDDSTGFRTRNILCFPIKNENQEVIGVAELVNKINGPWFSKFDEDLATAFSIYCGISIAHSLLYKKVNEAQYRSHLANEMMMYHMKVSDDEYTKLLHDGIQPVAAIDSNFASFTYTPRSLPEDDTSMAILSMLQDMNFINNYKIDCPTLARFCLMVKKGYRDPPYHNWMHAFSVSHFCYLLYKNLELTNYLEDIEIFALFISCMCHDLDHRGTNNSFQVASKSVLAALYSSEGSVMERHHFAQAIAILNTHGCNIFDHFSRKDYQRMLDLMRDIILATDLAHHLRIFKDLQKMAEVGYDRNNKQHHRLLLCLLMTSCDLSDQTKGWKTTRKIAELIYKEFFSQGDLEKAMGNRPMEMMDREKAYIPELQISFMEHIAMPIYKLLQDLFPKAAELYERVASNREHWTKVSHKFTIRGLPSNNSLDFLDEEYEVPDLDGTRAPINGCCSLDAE
Please respond with True when measured Ki is strictly beneath 30 nM, and with False in all other cases.

> print(dat)
                                    molecule    cat
 1  CCc1ccc([C@@H](CO)n2cc(-c3cc(=O)[nH]c(C)n3)cn2)c(Cl)c1 (single isomer, unassigned) [Example 18]   True
 2  CCc1ccc(C(C)n2cc(-c3cc(=O)[nH]c(C)n3)cn2)c(Cl)c1 (single isomer, unassigned) [Example 99]   True
 3  CCc1nc(-c2cnn(C(C)c3ccc(C(F)(F)F)cc3F)c2)cc(=O)[nH]1 (centres unmarked) [Example 36]   True
 4  Cc1nc(-n2cc(C(C)c3ccc(C(F)(F)F)cc3F)cn2)cc(=O)[nH]1 (single isomer, unassigned) [Example 52]   True
 5  COc1ccc(Cc2nc(-c3cnn(C(C)c4ccc(C(F)(F)F)cc4F)c3)cc(=O)[nH]2)cc1F (single isomer, unassigned) [Example 146]  False
 6  Cc1nc(-c2cnn([C@H](C)c3c(F)cc(C(F)(F)F)cc3F)c2)cc(=O)[nH]1 (single isomer, unassigned) [Example 7]  False
 7  Cc1ccc(C(C)n2cc(-c3cc(=O)[nH]c(C)n3)cn2)c(Cl)c1 (single isomer, unassigned) [Example 148]  False
 8  CCc1ccc([C@](C)(O)c2cnn(-c3cc(=O)[nH]c(C)n3)c2)c(F)c1 (single isomer, unassigned) [Example 12]  False
 9  Cc1nc(-c2cnn(C(CO)c3ccc(C(F)(F)F)cc3F)c2)cc(=O)[nH]1 (single isomer, unassigned) [Example 109]   True
10  CC(c1ccc(C(F)(F)F)cc1F)n1cc(-c2cc(=O)[nH]c(C3CC3)n2)cn1 (centres unmarked) [Example 10]   True
11  COc1ccc(Cc2nc(-c3cnn(C(C)c4ccc(S(F)(F)(F)(F)F)cc4)c3)cc(=O)[nH]2)cc1OC (single isomer, unassigned) [Example 65]   True
12  CCc1ccc(C(C(=O)OC)n2cc(-c3cc(=O)[nH]c(C)n3)cn2)c(Cl)c1 (centres unmarked) [Example 114]  False
13  CCc1ccc(C(C)(O)c2cnn(-c3cc(=O)[nH]c(C)n3)c2)c(Cl)c1 (centres unmarked) [Example 119]   True
14  Cc1nc(-c2cnn(C(C)c3ccc(C4CC4)cc3F)c2)cc(=O)[nH]1 (single isomer, unassigned) [Example 91]  False
